Each entry below lists one item and its recorded Plant response rating, Sedge, Umbrella (Flood) value.
- Tested on: sedge, umbrella
- ASSAY_TEXT: Test D flooded paddy test
- Assay type: in vivo, Cyperus difformis
- CONDITION_SET: 250 g ai/ha, applied to paddy water, visual rating after 13 to 14 days, scale 0 to 100 (0 no effect, 100 complete control)
// no unit, no text: just the number

Below: 2 molecules and their reported Plant response rating, Sedge, Umbrella (Flood).
>>> reported("Cc1ccc(-n2cnc(CC#N)n2)cc1C(=O)N1C[C@H](C)Oc2c(Cl)cccc21")
95
>>> reported("Cc1cccc2c1OC(C(F)(F)F)CN2C(=O)c1cccc(-n2cnc(C(C)C)n2)c1 (racemic) [Compound 301]")
85

In the following, a different molecule is considered.
Please fill in: Plant response rating, Sedge, Umbrella (Flood) reported for CCOCC1CN(C(=O)c2cc(-n3cnc(CC)n3)ccc2OC)c2cccc(Cl)c2O1 (stereo not drawn) = 0

====

- Test system: soybean
- ASSAY_TEXT: Test C preemergence
- Assay type: in vivo, Glycine max
- CONDITION_SET: 500 g ai/ha, preemergence; 0 to 100 scale (0 no effect, 100 complete control)
Listed molecules paired with reported Soybean plant response rating
Simply state the number, no unit and no words.

>>> reported("C[C@H]1CN(C(=O)c2cccc(-n3cnc(OS(C)(=O)=O)n3)c2)c2cccc(Cl)c2O1")
0
>>> reported("CC(C)c1ncn(-c2ccc([S+](C)[O-])c(C(=O)N3C[C@H](C)Oc4c(Cl)cccc43)c2)n1 (stereo partly drawn)")
100
>>> reported("Cc1ccc(-n2cncn2)cc1C(=O)N1CC(C(F)(F)F)Oc2c(Cl)cccc21 (stereo not drawn)")
100

Sample COC(C)c1ncn(-c2ccc(C)c(C(=O)N3CC(C)Oc4c(Cl)cccc43)c2)n1 (mixture of isomers) ; Soybean plant response rating observed: 100

Reported Soybean plant response rating of Cc1cccc2c1OC(C(F)(F)F)CN2C(=O)c1cccc(-n2cnc(C(C)(C)C)n2)c1 (stereo not drawn) : 30

For this molecule ( Cc1ncnn1-c1cc(C(=O)N2CC(C(F)(F)F)Oc3c(Cl)cccc32)ccn1 (racemic) ), measured Soybean plant response rating is 0

Reported Soybean plant response rating ( CC(C)c1ncn(-c2cccc(C(=O)N3CC(C(F)(F)F)Oc4c(Cl)cccc43)c2)n1 (single isomer, unassigned) ) = 90

So for Cc1cccc2c1OC(C(F)(F)F)CN2C(=O)c1ccnc(-n2cnc(C(C)C)n2)c1 (stereo not drawn) [Compound 327] , the logged Soybean plant response rating turned out to be 100

Entry Cc1nnc(-c2cccc(C(=O)N3C[C@H](C)Oc4c(Cl)cccc43)c2)o1 ; Soybean plant response rating = 0

// recorded Soybean plant response rating for COc1ccc(-n2cnc(C(C)(C)O)n2)cc1C(=O)N1C[C@H](C)Oc2c(C)cccc21 : 100

Given item CC(=O)N(C)c1ncn(-c2cccc(C(=O)N3C[C@H](C)Oc4c(C)cccc43)c2)n1 , the value recorded as its Soybean plant response rating is 30

Soybean plant response rating for C=C(C)c1cc(C(=O)N2C[C@H](C)Oc3c(Cl)cccc32)cc(-n2cncn2)c1 is 0

The value of Soybean plant response rating measured for the molecule Cc1cccc2c1OC(C(F)(F)F)CN2C(=O)c1ccnc(-n2cnc(C(C)C)n2)c1 (single isomer, unassigned) [Compound 328] turned out to be 100

Noted for Cc1ccc(-n2cnc(C3(C#N)CC3)n2)cc1C(=O)N1C[C@H](C)Oc2c(Cl)cccc21 : its Soybean plant response rating reads 60

Reported Soybean plant response rating of Cc1cccc2c1O[C@@H](C)CN2C(=O)c1cccc(-n2cnc([N+](=O)[O-])n2)c1 : 0
